Sourced from patent US12581252B2

Item-by-item account of pIC50
- assay_target: H1047R PIK3CA enzyme (Homo sapiens, UniProt P42336, H1047R)
- Sequence (P42336 whole entry H1047R): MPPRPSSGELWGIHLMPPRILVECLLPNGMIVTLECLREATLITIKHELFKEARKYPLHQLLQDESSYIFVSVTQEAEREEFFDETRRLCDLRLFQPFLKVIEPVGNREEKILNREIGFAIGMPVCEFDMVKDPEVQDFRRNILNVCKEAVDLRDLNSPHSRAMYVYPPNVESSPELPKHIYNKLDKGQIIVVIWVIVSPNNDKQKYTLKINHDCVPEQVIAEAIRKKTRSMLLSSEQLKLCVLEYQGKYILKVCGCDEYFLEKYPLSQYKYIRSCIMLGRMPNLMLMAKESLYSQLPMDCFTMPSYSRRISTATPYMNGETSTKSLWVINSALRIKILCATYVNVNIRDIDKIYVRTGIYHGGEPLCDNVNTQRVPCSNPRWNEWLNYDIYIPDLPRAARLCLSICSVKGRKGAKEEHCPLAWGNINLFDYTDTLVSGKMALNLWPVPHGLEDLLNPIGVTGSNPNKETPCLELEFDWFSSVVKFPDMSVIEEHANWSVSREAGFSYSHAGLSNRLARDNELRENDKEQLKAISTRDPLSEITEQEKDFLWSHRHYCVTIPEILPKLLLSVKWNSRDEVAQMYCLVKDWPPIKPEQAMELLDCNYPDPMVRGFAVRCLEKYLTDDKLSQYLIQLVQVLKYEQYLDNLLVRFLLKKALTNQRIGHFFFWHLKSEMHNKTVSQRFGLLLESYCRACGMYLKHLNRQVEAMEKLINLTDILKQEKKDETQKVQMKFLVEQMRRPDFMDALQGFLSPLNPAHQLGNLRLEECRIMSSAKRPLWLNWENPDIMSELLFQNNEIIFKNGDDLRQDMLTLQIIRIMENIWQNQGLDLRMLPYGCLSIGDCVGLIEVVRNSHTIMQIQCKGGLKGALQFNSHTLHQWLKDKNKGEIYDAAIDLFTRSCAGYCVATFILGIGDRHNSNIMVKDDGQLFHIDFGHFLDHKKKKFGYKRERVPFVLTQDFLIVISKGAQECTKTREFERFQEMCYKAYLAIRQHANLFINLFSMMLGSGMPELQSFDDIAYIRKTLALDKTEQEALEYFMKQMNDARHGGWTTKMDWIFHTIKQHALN
- Sequence (P27986 whole entry partner): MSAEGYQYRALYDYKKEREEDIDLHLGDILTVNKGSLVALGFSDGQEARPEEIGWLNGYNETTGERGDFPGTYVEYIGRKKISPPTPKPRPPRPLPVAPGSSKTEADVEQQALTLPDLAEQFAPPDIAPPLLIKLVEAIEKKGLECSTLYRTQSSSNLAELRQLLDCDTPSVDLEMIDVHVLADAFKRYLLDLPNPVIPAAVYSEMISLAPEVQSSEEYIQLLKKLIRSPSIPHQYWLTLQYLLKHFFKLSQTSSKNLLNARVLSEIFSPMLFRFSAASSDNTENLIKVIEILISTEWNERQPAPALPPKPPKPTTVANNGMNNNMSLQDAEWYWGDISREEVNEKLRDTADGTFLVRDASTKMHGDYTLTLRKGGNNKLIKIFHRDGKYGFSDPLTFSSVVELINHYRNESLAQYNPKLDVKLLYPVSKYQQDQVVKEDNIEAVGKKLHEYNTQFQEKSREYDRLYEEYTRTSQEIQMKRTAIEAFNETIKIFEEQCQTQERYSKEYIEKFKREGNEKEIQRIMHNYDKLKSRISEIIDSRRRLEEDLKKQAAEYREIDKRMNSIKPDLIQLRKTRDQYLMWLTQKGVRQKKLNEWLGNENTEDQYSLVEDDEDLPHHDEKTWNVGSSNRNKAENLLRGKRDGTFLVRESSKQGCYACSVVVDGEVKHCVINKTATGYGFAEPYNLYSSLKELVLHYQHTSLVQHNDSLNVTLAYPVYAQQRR
- assay: ADP-Glo Biochemical PIK3CA Kinase Assay
pIC50: −log10 of the molar value.

Past entries and their recorded results:
>>> value_observed("C[C@H](C#N)n1cc(-c2cc(NC(=O)c3cc(F)cc(C(F)(F)F)c3)c3c(c2)C(=O)N[C@H]3c2cc(F)ccc2Cl)cn1 (single isomer, unassigned)")
"≥ 7.00"
>>> value_observed("Cc1ccccc1C1NC(=O)c2cccc(NC(=O)c3noc4ccc(F)cc34)c21 (stereo not drawn)")
"5.00 to 6.00"

Here is another compound to look at.
Returns the measured pIC50 for the input compound. Input: O=C(Nc1cc(-c2ccc3ncc(C(F)F)n3c2)cc2c1[C@@H](c1cc(F)ccc1Cl)NC2=O)c1cc(F)cc(C(F)(F)F)c1
6.00 to 6.30

* * *

- assay_target: H1047R PIK3CA enzyme (Homo sapiens, UniProt P42336, H1047R)
- assay: ADP-Glo Biochemical PIK3CA Kinase Assay
pIC50: −log10 of the molar value.
Item-by-item account of pIC50

Past entries and their recorded results:
>>> value_observed("O=C1N[C@@H](c2cc(F)ccc2Cl)c2c(N[C@H]3CCOc4ccccc43)cc(-c3cnn(C(F)F)c3)nc21 (single isomer, unassigned) [Compound I-2160]")
"4.00 to 5.00"
>>> value_observed("O=C1NC(c2cc(F)ccc2Cl)c2c(Nc3nsc4ccccc34)cc(Br)cc21 (centres unmarked)")
"4.00 to 5.00"
>>> value_observed("O=C(Nc1cccc2c1C(c1cccc(F)c1)NC2=O)c1cc(F)cc(C(F)(F)F)c1 (centres unmarked)")
"5.00 to 6.00"
>>> value_observed("N#Cc1cc(NC(=O)N2C[C@@](O)(C(F)(F)F)c3ccccc32)c2c(c1)C(=O)N[C@@H]2c1cc(F)ccc1Cl (single isomer, unassigned)")
"≥ 7.00"
>>> value_observed("O=C(Nc1cc(Br)cc2c1[C@@H](c1cc(F)cc(F)c1Cl)NC2=O)c1cc(F)cc(C(F)(F)F)c1")
"6.00 to 6.30"
>>> value_observed("CC(c1cc(NC(=O)c2cc(F)cc(C(F)(F)F)c2)c2c(c1)C(=O)NC2c1cc(F)ccc1Cl)[S+](C)[O-] (racemic)")
"6.30 to 7.00"
>>> value_observed("O=C1NC(c2cc(F)ccc2Cl)c2c(NC(=O)N3CC4CC(F)(C4)C3)cc(Br)cc21 (centres unmarked)")
"4.00 to 5.00"
>>> value_observed("O=C(Nc1cccc2c1C(=O)NS2(=O)=O)c1cc(F)cc(C(F)(F)F)c1")
"4.00 to 5.00"
>>> value_observed("Cc1ccccc1CC1NC(=O)c2cccc(NC(=O)c3cc(F)cc(C(F)(F)F)c3)c21 (centres unmarked)")
"5.00 to 6.00"
>>> value_observed("O=C1NC(c2cc(F)ccc2Cl)c2c(NC(=O)c3cc(F)cc4oc(=O)[nH]c34)cc(Br)cc21 (centres unmarked)")
"5.00 to 6.00"

Returns the measured pIC50 for the input compound. Input: CC(=O)N1CCC12CN(c1cc(NC(=O)c3cc(F)cc(C(F)(F)F)c3)c3c(c1)C(=O)NC3c1cc(F)ccc1Cl)C2 (centres unmarked)
6.30 to 7.00

Returns the measured pIC50 for the input compound. Input: O=C(Nc1cc(C2CC(F)(F)C2)cc2c1C(c1cc(F)ccc1Cl)NC2=O)c1cc(F)cc(C(F)(F)F)c1 (centres unmarked)
≥ 7.00

Returns the measured pIC50 for the input compound. Input: O=C1NC(c2cc(F)ccc2Cl)c2c(NC(=O)[C@@H]3CC[C@@H](O)C3)cc(Br)cc21 (single isomer, unassigned)
4.00 to 5.00

Returns the measured pIC50 for the input compound. Input: O=C1N[C@@H](c2cc(F)ccc2Cl)c2c(NC(=O)N3C[C@@](O)(C(F)F)c4ccccc43)cccc21 (single isomer, unassigned)
≥ 7.00

Returns the measured pIC50 for the input compound. Input: O=C(Nc1cnc(N2CC(F)(F)C2)c2c1C(Cl)(c1cc(F)ccc1Cl)NC2=O)c1cc(F)cc(C(F)(F)F)c1 (centres unmarked)
5.00 to 6.00
